- Tested on: HEK-293T
- assay_procedure: Multiplex assay against HEK293T
- Format: toxicity, cell-based
- measurement_context: human, 48 h, 10 µM, compound concentration 10 uM, replicate 2
Returns one of satisfied or not satisfied; satisfied when Population Mitotic Cells (%) is >= 60%.

Before answering, review these 3 worked examples.
Request: Assess whether reported Population Mitotic Cells (%) for COc1cc2ncn(-c3cc(OCc4ccccc4C(F)(F)F)c(C(N)=O)s3)c2cc1OC [GW843682X] sits at 60% or higher.
Result: not satisfied

Request: Then what about the compound "O=c1cc(N2CCOCC2)oc2c(-c3cccc4c3sc3ccccc34)cccc12" ?
Result: not satisfied

Request: And CC(C)c1noc(N2CCC(COc3ccc(-c4ccc(S(C)(=O)=O)cc4)nc3)CC2)n1 [GSK-1292263] ?
Result: satisfied

Others:
Request: Please tell me: is the compound Cc1c[nH]c2nccc(Oc3c(F)cc(Nc4cc(Cl)nc(N)n4)cc3F)c12 [BAY-549] at or over 60% in terms of Population Mitotic Cells (%)?
Result: not satisfied

Request: Now the compound COC(=O)C1=C(C)NC(C)=C(C(=O)OCCCN2CCC(c3ccccc3)(c3ccccc3)CC2)[C@H]1c1cccc([N+](=O)[O-])c1 [NIGULDIPINE]
Result: not satisfied

Request: Next entry: "CC(C)OC(=O)N1CCC(Oc2ncnc3c2cnn3-c2ccc(S(C)(=O)=O)cc2F)CC1"
Result: satisfied

Request: Next compound up: COc1ccc(-c2ccc3ncc4c(c3c2)n(-c2ccc(N3CCNCC3)c(C(F)(F)F)c2)c(=O)n4C)cn1.O=C(O)/C=C\C(=O)O [BGT-226]
Result: not satisfied

Request: Further, for Cc1ccc2c(c1)c1c(n2CCc2ccc(C)nc2)CCN(C)C1 [LATREPIRDINE] ?
Result: not satisfied

Request: Next entry: "CCc1ccc(OCc2ccccc2C(=O)Nc2ccc3nc(C)cc(N)c3c2)cc1.Cl"
Result: satisfied

Request: // same read-out, input: "CCOC(=O)Nc1cc(-c2ccc(C)c(NS(C)(=O)=O)c2)nn2c(C)nnc12"
Result: satisfied

Request: Ok, now C#Cc1cccc(Nc2ncnc3cc(OCCOC)c(OCCOC)cc23)c1 [ERLOTINIB]
Result: not satisfied

Request: Try the compound "CC(C)NC(=O)N1CC[C@H](NC2=Nc3cc(F)ccc3N(CC(F)F)c3ccc(Cl)cc32)C1"
Result: not satisfied

Request: Record: CN1CCN(Cc2ccc(Nc3ncc(Cl)c(Nc4ccccc4S(=O)(=O)N(C)C)n3)cc2)CC1 [DUBERMATINIB]
Result: satisfied
